IC50 by entry:
# System: U87MG pLVX-IDH2 R140Q-neo cells
# experimentSummary: U87MG pLVX-IDH2 R140Q-neo cell based assay, 2-HG in media by LC-MS at 48 hours
# setupConditions: Homo sapiens, U-87 MG

For orientation, consider the following solved cases.
Fc1ccc(Nc2nc(NC3CCC3)nc(-c3ccccn3)n2)cn1
0.1 to 1 µM
COc1ccc(Nc2nc(NC(C)C)nc(-c3ccccc3)n2)cc1
0.1 to 1 µM

IN: IC50 lookup needed for `CCS(=O)(=O)c1cccc(Nc2nc(NC(C)C)nc(-c3ccccc3)n2)c1` , thanks.
OUT: < 0.1 µM

IN: IC50 lookup needed for `COc1cccc(-c2nc(Nc3ccccc3)nc(NC(C)C)n2)c1` , thanks.
OUT: 0.1 to 1 µM

====

# targetOrSystem: IDH2 R140Q (Homo sapiens, UniProt P48735, R140Q)
# Sequence (P48735 40-452 R140Q): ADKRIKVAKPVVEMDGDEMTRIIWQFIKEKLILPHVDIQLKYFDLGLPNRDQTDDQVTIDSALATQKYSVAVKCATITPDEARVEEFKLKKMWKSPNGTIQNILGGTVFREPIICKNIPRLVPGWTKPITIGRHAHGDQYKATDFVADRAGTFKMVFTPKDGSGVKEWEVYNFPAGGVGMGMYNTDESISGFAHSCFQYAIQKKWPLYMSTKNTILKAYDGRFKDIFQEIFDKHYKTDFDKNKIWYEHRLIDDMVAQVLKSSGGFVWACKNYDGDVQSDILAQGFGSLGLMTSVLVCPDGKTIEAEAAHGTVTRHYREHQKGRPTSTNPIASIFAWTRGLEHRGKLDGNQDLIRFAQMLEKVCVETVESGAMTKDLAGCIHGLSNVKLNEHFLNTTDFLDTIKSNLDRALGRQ
# experimentSummary: IDH2 R140Q enzymatic assay (cofactor depletion, similar format)
# Format: biochemical
# setupConditions: read-out: Enz R140Q
pIC50: −log10 of the molar value.
propertyLabel: pIC50

For orientation, consider the following solved cases.
CC(C)Nc1nc(Nc2ccc(F)cc2F)nc(-c2ccccc2)n1 [Compound 140]
> 7.00
CC(C)Nc1nc(Nc2ccnc(Cl)c2)nc(-c2ccccc2)n1 [Compound 199]
> 7.00
CC(C)Nc1nc(Nc2ccncc2)nc(-c2ccccc2F)n1 [Compound 227]
> 7.00
Cc1cc(Nc2nc(NC(C)C)nc(-c3ccccc3)n2)ccn1 [Compound 288]
> 7.00
CCCCNc1nc(Nc2ccnc(Cl)c2)nc(-c2ccccc2)n1 [Compound 260]
> 7.00

IN: pIC50 lookup needed for FC(F)(F)c1cc(Nc2nc(NCC3CCOC3)nc(-c3cccc(C(F)(F)F)n3)n2)ccn1 (centres unmarked) [Compound 547] , thanks.
OUT: 6.00 to 7.00

IN: pIC50 lookup needed for CC(C)Nc1nc(Nc2ccnc(CC#N)c2)nc(-c2cccc(C(F)(F)F)n2)n1 [Compound 672] , thanks.
OUT: 6.00 to 7.00

IN: pIC50 lookup needed for CC(C)(O)CNc1nc(Nc2ccnc(C(F)(F)F)c2)nc(-c2cccc(O)c2)n1 [Compound 641] , thanks.
OUT: 6.00 to 7.00

IN: pIC50 lookup needed for c1ccc(Nc2nc(NCC3CCO3)nc(-c3ccccc3)n2)cc1 (centres unmarked) [Compound 237] , thanks.
OUT: 6.00 to 7.00

IN: pIC50 lookup needed for CC(C)(O)CNc1nc(Nc2ccnc(C(F)(F)F)c2)nc(-c2ccccc2F)n1 [Compound 319] , thanks.
OUT: 6.00 to 7.00
